- Test system: SF-268
- Assay method text: NCI tumour cell line growth inhibition, 48 h
Activity calls are given as the source filed them. Rule as the data show it: active = GI50 up to about 1.1 µM and inactive = higher.
Reported metric: GI50

These recorded examples may help you get a feel for the data.
Compound: COc1ccc(N2C(=O)C3c4[nH]c5ccccc5c4C4CCCCCCCCCC4C3C2=O)cc1 (configuration not stated)
GI50: > 10 µM (inactive)
//
Compound: C[N+]1(CC[N+]2(C)CCCC2c2cccnc2)CCCC1c1cccnc1 (configuration not stated)
GI50: > 100 µM (inactive)
//
Compound: C(=N\c1cc2cc(Sc3ccccc3)ccc2[nH]1)/c1ccccc1
GI50: > 12.5 µM (inactive)
//
Compound: N#CCCN(CCC#N)c1ccc(/C=C(/NC(=O)c2cc([N+](=O)[O-])ccc2Cl)C(=O)N=[N+]=[N-])cc1
GI50: > 100 µM (inactive)
//
Compound: COc1cc(/C=N/n2c(Cc3ccc(Cl)cc3)n[nH]c2=O)cc(OC)c1OC
GI50: 46.3 µM (inactive)
//
Compound: CSc1nc2c3ccccc3ccn2c1C(=O)N/N=C/c1ccccc1
GI50: 19.7 µM (inactive)
//
Compound: CCCCCCCCCCCCCCCCCCOCC(O)CO (configuration not stated)
GI50: > 25 µM (inactive)
//
Compound: CC1(C)CC(=O)C2=C(C1)OC1=C(CC(C)(C)CC1=O)C2c1ccccc1Cl (configuration not stated)
GI50: > 100 µM (inactive)
//
Compound: Cc1cc2nc3c(N)nn(CCCN(C)C)c3nc2cc1C
GI50: > 100 µM (inactive)
//
Compound: Nc1nc[n+](Cc2ccccc2)c2ncn(Cc3ccccc3)c12
GI50: > 100 µM (inactive)

Recorded GI50 of `Clc1cc(Cl)cc(/N=C/C=C/Nc2cc(Cl)cc(Cl)c2)c1` , please.
18.9 µM (inactive)

# GI50 lookup, item `O=Cc1c2c(cc3c1CC1(C3)Cc3cc4c(c(C=O)c3C1)CCCC4)CCCC2`
> 100 µM (inactive)

Item under review: COc1c(O)c(O)cc2c1-c1ccc(OC)c(=O)cc1C(NC(C)=O)CC2 (configuration not stated) . Reported GI50?
5.52 µM (inactive)

Consider the compound CN1C(=O)C2(C=CC(O)CC2)c2ccccc21 (configuration not stated) and give its measured GI50.
> 100 µM (inactive)

May I ask what GI50 has been recorded for `O=C(NCCCn1ccnc1[N+](=O)[O-])C(=O)NCCCn1ccnc1[N+](=O)[O-]` ?
> 100 µM (inactive)

Would you mind telling me what GI50 value was observed for `COc1cc2cc3c4c(cc(OC)c(OC)c4c2cc1OC)CCN3C(=O)OCCBr` ?
> 100 µM (inactive)

Return reported GI50; argument: `O=C1CC(Cc2n[nH]c3c2CCCC3)CC(=O)N1`
> 100 µM (inactive)

State the recorded GI50 for this entry: `CCC(=O)C1(c2ccccc2)CCN(C)CC1`
> 100 µM (inactive)

###

# GI50 per record follows
- Test system: NCI-H460
- Assay method text: NCI tumour cell line growth inhibition, 48 h
Activity calls are given as the source filed them. Rule as the data show it: active = GI50 up to about 1.1 µM and inactive = higher.

A selection of reference data follows.
Compound: Cc1ccc(/N=N/C(=NNC(=O)c2ccc(C)cc2)c2ccc(N(C)C)cc2)cc1
Result: 25.3 µM (inactive)
//
Compound: C=CCN(C(=O)CNC(=O)C(F)(F)F)c1cc(OCc2ccccc2)c2c(c1)c(C)cn2S(=O)(=O)c1ccccc1
Result: > 30.5 µM (inactive)
//
Compound: COc1ccccc1NC(=O)C1=C(C)NC(C)=C(C(=O)Nc2ccccc2OC)C1c1ccc(N(C)C)cc1
Result: 27.5 µM (inactive)
//
Compound: CCOC(=O)/C1=C(\C)N(Cc2ccccc2)C(=O)c2ccccc2C(=O)c2c(OC(C)=O)ccc(OC(C)=O)c21
Result: 39.4 µM (inactive)
//
Compound: CCOC(=O)C1=C(OC(OCC)C(C)[Se]c2ccccc2)CCC1 (centres undefined)
Result: 25.4 µM (inactive)
//
Compound: O=C1C(Cl)=C(N2CCC[C@@H]2CO)C(=O)c2c(O)ccc(O)c21
Result: 1.73 µM (inactive)
//
Compound: Nc1ccccc1C(=O)C(Br)C(Br)c1ccc2c(c1)OCO2 (centres undefined)
Result: 18.6 µM (inactive)
//
Compound: CO[C@@H]1C=C[C@@]23c4cc5c(cc4C(=O)O[C@H]2CN(C)[C@H]3C1)OCO5
Result: > 100 µM (inactive)

Lab note: next compound to report on.
Lab request: please report GI50 under test system NCI-H460 for `COc1ccc(/C=C/C(=O)c2ccc(Br)cc2)cc1`
> 100 µM (inactive)

Values compiled from ChEMBL document CHEMBL1201862.
